# System: UniProt Q8NER1
# Sequence (Q8NER1 whole entry): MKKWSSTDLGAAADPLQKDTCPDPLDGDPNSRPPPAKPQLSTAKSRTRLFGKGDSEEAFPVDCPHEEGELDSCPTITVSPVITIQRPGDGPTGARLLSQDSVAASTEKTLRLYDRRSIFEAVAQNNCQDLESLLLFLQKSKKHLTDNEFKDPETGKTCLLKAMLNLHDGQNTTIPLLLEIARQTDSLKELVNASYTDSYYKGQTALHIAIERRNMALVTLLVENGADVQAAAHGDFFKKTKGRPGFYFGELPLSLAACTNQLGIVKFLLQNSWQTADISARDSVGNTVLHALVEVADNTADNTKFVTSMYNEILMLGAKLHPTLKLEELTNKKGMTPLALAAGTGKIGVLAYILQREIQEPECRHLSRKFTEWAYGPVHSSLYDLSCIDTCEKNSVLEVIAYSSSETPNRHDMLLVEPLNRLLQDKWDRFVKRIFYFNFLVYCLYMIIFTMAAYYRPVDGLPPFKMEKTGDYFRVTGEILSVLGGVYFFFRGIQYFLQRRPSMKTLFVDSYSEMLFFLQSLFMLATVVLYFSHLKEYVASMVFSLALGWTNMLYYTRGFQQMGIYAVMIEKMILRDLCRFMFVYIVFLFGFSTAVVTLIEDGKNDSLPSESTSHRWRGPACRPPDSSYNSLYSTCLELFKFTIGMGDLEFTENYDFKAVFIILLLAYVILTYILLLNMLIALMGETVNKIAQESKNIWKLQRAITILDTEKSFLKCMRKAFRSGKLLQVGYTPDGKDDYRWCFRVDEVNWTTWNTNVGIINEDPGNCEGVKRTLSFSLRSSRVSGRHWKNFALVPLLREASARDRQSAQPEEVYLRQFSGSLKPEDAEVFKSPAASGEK
# Measurement description: FLIPR Ca2+ flux assay
# Format: cell-based
# Run conditions: concn tested 100 nM; normalized to Emax of capsaicin (3 μM)
Overview of reported hTRPV1% activation across a group of compounds:
Recorded endpoint: hTRPV1% activation (%)

| Compound | Unit abbreviation | Result number |
| --- | --- | --- |
| O=C(NC1CCCCCC1)c1ccc(-c2ccccc2)cc1 | % | 0.0 |
| O=C(NC1CCC2CCCCC2C1)c1ccc(-c2ccccc2)cc1 (centres unmarked) | % | 2.3 |
| O=C(NC1CCCCCCC1)c1ccc(-c2ccccc2)cc1 | % | −1.9 |
| O=C(NC1CCc2ccccc2C1)c1ccc(-c2ccccc2)cc1 (centres unmarked) | % | −1.8 |
| O=C(NC1CCC2(CCCCC2)CC1)c1ccc(-c2ccccc2)cc1 | % | −1.0 |
